Tested on: HDQ-P1
Experiment: drug sensitivity score (DSS), CellTiter-Blue viability (DSS (AUC-based score)); higher = stronger viability inhibition; extreme values may be limits of the assay
Settings: incubation time: 72 h
QUANTITY KIND: drug sensitivity score

>>> df
                              record_smiles  experimental_target           quantity_kind  test_result
0                         NCCCNCCSP(=O)(O)O               HDQ-P1  drug sensitivity score            0
1  CCCS(=O)(=O)Nc1ccc(F)c(C(=O)c2c[nH]c3ncc(-c4ccc(Cl)cc4)cc23)c1F               HDQ-P1  drug sensitivity score         1.56
2  Nc1ccccc1NC(=O)c1ccc(CNC(=O)OCc2cccnc2)cc1               HDQ-P1  drug sensitivity score            0
3  O=C(/C=C/c1cccnc1)NCCCCC1CCN(C(=O)c2ccccc2)CC1               HDQ-P1  drug sensitivity score          9.7
4  CC1=C(/C=C/C(C)=C/C=C/C(C)=C/C(=O)O)C(C)(C)CCC1               HDQ-P1  drug sensitivity score            0
5      N#Cc1ccc(C(c2ccc(C#N)cc2)n2cncn2)cc1               HDQ-P1  drug sensitivity score            0
6  COc1cc2nccc(Oc3ccc(NC(=O)Nc4cc(C)on4)c(Cl)c3)c2cc1OC               HDQ-P1  drug sensitivity score         5.92

====

Each entry below carries its recorded normalised response.
System: MDA-MB-453
Assay: normalised response (% of control), CellTiter-Glo; higher = more viable cells (100 = DMSO, 0 = benzethonium chloride kill control)
Conditions: incubation time: 72 h
QUANTITY KIND: normalised response (%)

MOLECULE	TEST RESULT
CC[C@H](Nc1ncnc2[nH]cnc12)c1nc2cccc(F)c2c(=O)n1-c1ccccc1 [GS-1101] (10 nM)	89.1
CCCCC(=O)OCC(=O)[C@]1(O)Cc2c(O)c3c(c(O)c2[C@@H](O[C@H]2C[C@H](NC(=O)C(F)(F)F)[C@H](O)[C@H](C)O2)C1)C(=O)c1c(OC)cccc1C3=O [Valrubicin] (0.5 nM)	94.2
Nc1ccccc1NC(=O)c1ccc(CNC(=O)OCc2cccnc2)cc1 [Entinostat] (1 nM)	114
O=C(O)C(=O)O.[NH-][C@@H]1CCCC[C@H]1[NH-].[Pt+2] [Oxaliplatin] (1000 nM)	89.2
N#Cc1ccc(C(c2ccc(C#N)cc2)n2cncn2)cc1 [Letrozole] (1 nM)	113
Nc1nc2[nH]cc(CCc3ccc(C(=O)N[C@@H](CCC(=O)O)C(=O)O)cc3)c2c(=O)[nH]1 [Pemetrexed] (10 nM)	92.8
C=CC(=O)N1CCC[C@@H](n2nc(-c3ccc(Oc4ccccc4)cc3)c3c(N)ncnc32)C1 [Ibrutinib] (1 nM)	107

====

Below, each entry is listed with its recorded normalised response.
System: BT-474
Test: normalised response (% of control), CellTiter-Glo; higher = more viable cells (100 = DMSO, 0 = benzethonium chloride kill control)
Conditions: incubation time: 72 h
QUANTITY KIND: normalised response (%)

>>> print(df.to_string())
                                   compound  experimental_target  test_result
0  O=C(O)CCCCC(CCSCc1ccccc1)SCc1ccccc1 (centres undefined) [CPI-613] (100 nM)               BT-474          106
1  C=CC(=O)N1CCC[C@@H](n2nc(-c3ccc(Oc4ccccc4)cc3)c3c(N)ncnc32)C1 [Ibrutinib] (10 nM)               BT-474          104
2  Nc1nc2[nH]cc(CCc3ccc(C(=O)N[C@@H](CCC(=O)O)C(=O)O)cc3)c2c(=O)[nH]1 [Pemetrexed] (100 nM)               BT-474         88.6
3  C=CC(=O)Nc1cc2c(Nc3ccc(F)c(Cl)c3)ncnc2cc1OCCCN1CCOCC1 [Canertinib] (100 nM)               BT-474         95.3
